- EXPERIMENTAL SYSTEM: HLA-A*02:01 (Homo sapiens, UniProt P04439, D140Y/D185E/D98H/E176V/E277Q/G131W/G231S/I119V/I121R/I166T/I218V/L300P/L318F/N151K/N90K/P208A/P217A/Q86G/Q94H/R138H/R169H/T345S)
- PROTOCOL NOTES: MHC binding assay (UV-ligand exchange, anti-β2m ELISA, peptide exchange yield)
- TEST CONDITIONS: binding to HLA-A*02:01
- Description: Candidate peptides for T cell based therapies according to the present invention were further tested for their MHC binding capacity (affinity). The individual peptide-MHC complexes were produced by UV-ligand exchange, where a UV-sensitive peptide is cleaved upon UV-irradiation, and exchanged with the peptide of interest as analyzed. Only peptide candidates that can effectively bind and stabilize the peptide-receptive MHC molecules prevent dissociation of the MHC complexes. […]
REPORTED METRIC: Peptide exchange (MHC class I binding score, peptide exchange yield)

595 (VLLSIYPRV; listed as Homo sapiens) [compound 595]	“+++” (>50 = +++)
586 (KLKPGDLVGV; listed as Homo sapiens) [compound 586]	“+++” (>50 = +++)
283 (ALYIGDGYVIHLA; listed as Homo sapiens) [compound 283]	“+++” (>50 = +++)
122 (FLLAEDDIYL; listed as Homo sapiens) [compound 122]	“+++” (>50 = +++)
320 (KMFEFVEPLL; listed as Homo sapiens) [compound 320]	“++++” (>75% = ++++)
225 (SLLKVLPAL; listed as Homo sapiens) [compound 225]	“+++” (>50 = +++)
436 (HLAEVSAEV; listed as Homo sapiens) [compound 436]	“+++” (>50 = +++)
327 (GLAPFTEGISFV; listed as Homo sapiens) [compound 327]	“+++” (>50 = +++)
8 (FTLGNVVGMYL; listed as Homo sapiens) [compound 8]	“++++” (>75% = ++++)
392 (ALLHPQGFEV; listed as Homo sapiens) [compound 392]	“++” (>20% = ++)

// query Item under review: 434 (KVSNSGITRV; listed as Homo sapiens) [compound 434] . Reported Peptide exchange (MHC class I binding score, peptide exchange yield)?
// result “++” (>20% = ++)

// query # get_value(readout='Peptide exchange (MHC class I binding score, peptide exchange yield)', item= 383 (ALLELENSVTL; listed as Homo sapiens) [compound 383] )
// result “+++” (>50 = +++)

// query Any idea what Peptide exchange (MHC class I binding score, peptide exchange yield) was measured for 554 (LLMPSSEDLLL; listed as Homo sapiens) [compound 554] ?
// result “+++” (>50 = +++)

// query Consider the substance 190 (FLSSLTETI; listed as Homo sapiens) [compound 190] and give its measured Peptide exchange (MHC class I binding score, peptide exchange yield).
// result “+++” (>50 = +++)

// query Peptide exchange (MHC class I binding score, peptide exchange yield) for 331 (KVDTVWVNV; listed as Homo sapiens) [compound 331] ?
// result “+++” (>50 = +++)

// query What value of Peptide exchange (MHC class I binding score, peptide exchange yield) has been recorded for this entry: 377 (FLLDSSASV; listed as Homo sapiens) [compound 377]
// result “++” (>20% = ++)

// query # query: Peptide exchange (MHC class I binding score, peptide exchange yield) of entry 620 (KLLNKIYEA; listed as Homo sapiens) [compound 620]
// result “++++” (>75% = ++++)

// query Can you share its Peptide exchange (MHC class I binding score, peptide exchange yield)? I mean this substance: 258 (ELAERVPAI; listed as Homo sapiens) [compound 258]
// result “++” (>20% = ++)

// query GET /values?readout=Peptide exchange (MHC class I binding score, peptide exchange yield)&item= 232 (ALLEAQDVELYL; listed as Homo sapiens) [compound 232]
// result “++” (>20% = ++)

Hello, the source for this data is patent US10239925B2, in case you need it.
